Below, each of the compounds is paired with its reported solubility kinetic value.
conditions: buffer; pH 7.4; 200.0 µM

Fill in the blank: the reported solubility kinetic of COc1cc(C(=O)Nc2ccc3c(c2)ncn3C)cc(OC)c1OC is ____.
> 51.2 µg/mL

Another compound to look at: COc1cccc(C(=O)NCc2ccco2)c1
> 34.7 µg/mL

Another compound to look at: CC(C)OC(=O)NCCOC(=O)Nc1ccccc1Cl
> 45.1 µg/mL

Another compound to look at: O=C1c2ccccc2CN1Cc1ccccc1
> 33.5 µg/mL

Another compound to look at: Cc1cc(C)nc(SCC(=O)c2ccc(F)cc2F)n1
> 44.1 µg/mL

Another compound to look at: Cc1ccc(S(=O)(=O)N2CCC3(CC2)OCCO3)s1
> 45.5 µg/mL

Another compound to look at: COc1ccccc1-c1cc(-c2ccccc2)nc(=O)[nH]1
> 41.7 µg/mL

###

Below, each of the molecules is paired with its reported solubility kinetic value.
details: buffer; pH 7.4; 200.0 µM

molecule	solubility kinetic
Fc1ccc(-c2onc3ccc(C4OCCO4)cc23)cc1	< 0.6 µg/mL

Fill in the blank: the reported solubility kinetic of Cc1ccc(NC(=O)C2=NNC(=O)CC2)cc1F is ____.
> 37.4 µg/mL

Another molecule to look at: O=C(O)CC(CC(=O)Nc1ccc2ccccc2n1)c1ccccc1 (stereo not given)
> 50.2 µg/mL

Another molecule to look at: O=C(CNC(=O)c1ccco1)OCc1ccccc1Cl
> 44.1 µg/mL

Another molecule to look at: CCN1CC(CN(C)Cc2nc(-c3ccc(Cl)cc3)no2)CC1=O (stereo not given)
> 52.3 µg/mL

Another molecule to look at: Cc1ccc(S(=O)(=O)N2CCN(c3ccccc3)CC2)cc1
< 0.3 µg/mL

Another molecule to look at: O=Cc1cn(CC(=O)N2CCCCCC2)c2ccccc12
> 42.7 µg/mL

Another molecule to look at: Cc1nnc(SCC(=O)NC2CC2)s1
> 34.4 µg/mL

###

conditions: buffer; pH 7.4; 200.0 µM
measurementKind: solubility kinetic

Fill in the blank: the reported solubility kinetic of Cc1ccc(-n2c(N)c(Br)c(=O)[nH]c2=O)cc1C is ____.
> 46.5 µg/mL

###

conditions: buffer; pH 7.4; 200.0 µM
measurementKind: solubility kinetic

Take a look at these entries with their results.
compoundString	solubility kinetic
COc1ccccc1N(C)S(=O)(=O)c1ccc(C(=O)O)cc1	> 48.2 µg/mL
C[N+](C)(C)CCOC(=O)CBr.[Br-]	> 45.8 µg/mL

Now let's try a different one.
Fill in the blank: the reported solubility kinetic of O=[N+]([O-])c1cc(S(=O)(=O)NCCN2CCOCC2)ccc1Cl is ____.
> 52.5 µg/mL

###

details: buffer; pH 7.4; 200.0 µM
Could you label it Y if measured solubility kinetic is 10 µg/mL or higher, and N otherwise?

molecule	classification
N#Cc1ccc(-c2nc3ccccc3c(=O)n2O)cc1	Y
Clc1cc(/C=N\NC2=NCCN2)cc(Cl)n1	Y
Cc1oc(-c2ccc(Cl)cc2)cc1C(=O)NC1CCN(Cc2ccccc2)CC1	N

Is solubility kinetic for NS(=O)(=O)c1cc(C(=O)OC2CCOC2=O)ccc1Cl (stereo not drawn) at or above 10 µg/mL?
Y

###

settings: buffer; pH 7.4; 200.0 µM
measurementKind: solubility kinetic

Take a look at these entries with their results.
molecule	solubility kinetic
O=C1CN(C(=O)/C=C/c2cc(Br)ccc2F)CCN1	> 49.1 µg/mL
NC(=S)Nc1ccc(F)cc1F	> 28.2 µg/mL
Cc1nc([N+](=O)[O-])cn1CC(O)c1ccc(F)cc1 (centres undefined)	> 39.8 µg/mL

Now let's try a different one.
Fill in the blank: the reported solubility kinetic of O=C1CSC(c2ccccn2)N1c1ccc(C(F)(F)F)cc1 (centres undefined) is ____.
> 48.6 µg/mL

###

conditions: buffer; pH 7.4; 200.0 µM
Below, each of the compounds is paired with its reported solubility kinetic value.

Take a look at these entries with their results.
compound	measurementKind	result
O=C1CCC([N+](=O)[O-])C(c2ccc(C(F)(F)F)cc2)N1 (stereo not drawn)	solubility kinetic	> 43.2 µg/mL
Cc1cccc(C(=O)OC(C)CN2CCCC2)c1.Cl (stereo not drawn)	solubility kinetic	> 42.6 µg/mL

Now let's try a different one.
Fill in the blank: the reported solubility kinetic of O=C(Nc1ccc(F)cc1)Nc1ccc2ccccc2n1 is ____.
< 0.2 µg/mL

###

conditions: buffer; pH 7.4; 200.0 µM
Below, each of the molecules is paired with its reported solubility kinetic value.
API: value field is a number in µg/mL; no unit string.

Take a look at these entries with their results.
molecule	solubility kinetic [µg/mL]
O=C(COC(=O)c1ccc(Cl)c(Cl)c1)NC1CCCC1	2
CN(CC(=O)Nc1cccc(S(=O)(=O)N2CCCC2)c1)Cc1ccccc1	17.8
CN(C)S(=O)(=O)c1cccc(NC(=O)CC23CC4CC(CC(C4)C2)C3)c1	10.8
CC(Sc1ccc2ccccc2c1)C(=O)NC(N)=O (stereo not given)	8.6
O=C(NC(O)C(=O)c1ccccc1)c1ccc(F)cc1 (stereo not given)	39.7
COC(=O)c1oc(-c2ccccc2)nc1C	15.6

Fill in the blank: the reported solubility kinetic of COC(=O)c1ccc(/C=N/OCC(=O)NCc2ccc(F)cc2)cc1 is ____.
10.3

###

details: buffer; pH 7.4; 200.0 µM
Could you label it Met if measured solubility kinetic is 20 µg/mL or higher, and Not met otherwise?

compound	classification
S=C(NCc1cccs1)Nc1cccc2ccccc12	Met

Is solubility kinetic for N#CCC(=O)Nc1ccc(C(=O)OCC(=O)NC2CCCc3ccccc32)cc1 (stereo not drawn) at or above 20 µg/mL?
Not met

Another compound to look at: COc1ccc(C)cc1NC(=O)CC(NC(C)=O)c1ccccc1 (stereo not drawn)
Met

Another compound to look at: O=S(=O)(c1ccc(SCCO)nc1)N1CCOCC1
Met

Another compound to look at: COc1ccc(Cl)cc1NC(=S)Nc1cccnc1
Met

###

settings: buffer; pH 7.4; 200.0 µM
Could you label it condition met if measured solubility kinetic is 30 µg/mL or higher, and condition not met otherwise?

Field: example entries. Status: answers known.
compoundString	classification
O=C(O)c1nc(NCc2ccccc2)ncc1Cl	condition met
Cc1ccc2[nH]c(C(F)(F)F)cc(=O)c2c1	condition met

Is solubility kinetic for S=C(c1ccc(-c2ccc(Br)cc2)o1)N1CCOCC1 at or above 30 µg/mL?
condition not met

Another compound to look at: O=C(Nc1cccc2ccccc12)c1cccc(F)c1
condition not met

Another compound to look at: CSc1nsc(SCC(=O)NCc2ccc(C)cc2)n1
condition not met

Another compound to look at: COc1cc(CC(=O)OCC(=O)N2CCN(C(=O)c3ccco3)CC2)cc(OC)c1OC
condition met

###

Below, each of the compounds is paired with its reported solubility kinetic value.
settings: buffer; pH 7.4; 200.0 µM

Take a look at these entries with their results.
compound	result
Cc1ccc(-c2ccnc3cc(C)nn23)cc1	> 33.5 µg/mL
N#C/C(=C(/O)c1ccc(Cl)cc1)c1nc2ccccc2[nH]1	< 0.2 µg/mL
CCOc1cccc(/C=C/c2ccc3cccc(O)c3n2)c1OC	< 0.7 µg/mL
Cl.NC(=NCc1ccccc1)c1cccc([N+](=O)[O-])c1	> 43.8 µg/mL
COc1ccc(-n2c(N)cc(=O)[nH]c2=O)cc1	> 35 µg/mL
COc1ccc(NC(=O)CN(C)C(=O)c2ccc(=O)[nH]c2)cc1	> 47.3 µg/mL
Cc1ccc(N2CC(=O)Nc3c(oc4nc(-c5ccccc5)cc(C)c34)C2=O)cc1	< 0.3 µg/mL
C/C(=N\NC(=O)c1ccc(Cl)cc1)c1cccnc1	> 41.1 µg/mL
CC1CCCCC1NC(=O)C(C)N1C(=O)c2ccccc2C1=O (centres undefined)	> 47.2 µg/mL
O=C1NCCCCC1NS(=O)(=O)c1ccccc1 (centres undefined)	> 40.2 µg/mL

Fill in the blank: the reported solubility kinetic of CC1(c2ccccc2)NC(=O)N(CC(=O)Nc2ccccc2C(=O)NC2CC2)C1=O (centres undefined) is ____.
> 61 µg/mL

Another compound to look at: Cc1cccc(Cl)c1NC(=S)NCCc1ccccn1
> 45.9 µg/mL

Another compound to look at: N#Cc1ccc(Oc2cnccn2)cc1
> 29.6 µg/mL

Another compound to look at: O=C(CSc1nnc2ccccn12)NNC(=O)c1cccc(Cl)c1
> 54.3 µg/mL

###

Below, each of the compounds is paired with its reported log10 of solubility kinetic value.
details: buffer; pH 7.4; 200.0 µM
Note the log scale: values are log10 of solubility kinetic expressed in µg/mL.

Take a look at these entries with their results.
compound	measurementKind	result
Cc1nc(SCC(=O)N2CC(=O)Nc3ccccc32)nc(C)c1C	log10 of solubility kinetic	1.03
O=C(COC(=O)c1ccco1)Nc1cc(S(=O)(=O)N2CCOCC2)ccc1Cl	log10 of solubility kinetic	1.21
CC(NC(=O)NC(=O)c1ccc(Cl)cc1Cl)C1CC1 (stereo not drawn)	log10 of solubility kinetic	0.86
Cc1cc(=O)n2cccc(O)c2n1.Cl	log10 of solubility kinetic	1.34
Cc1cccc(NS(=O)(=O)c2ccc(Cl)cc2)n1	log10 of solubility kinetic	1.50
Cc1cccc(C2=N/C(=C\c3cccs3)C(=O)O2)c1	log10 of solubility kinetic	0.60
COCCCNC(=O)c1ccc(-c2nc3ccccc3nc2-c2ccccc2)cc1	log10 of solubility kinetic	1.51
COc1ccc(-c2nc3ccccc3c(=O)[nH]2)cc1	log10 of solubility kinetic	0.34
COc1cccc(C=O)c1OCCN1C(=O)c2ccccc2C1=O	log10 of solubility kinetic	1.63
COc1ccccc1C(=O)OCC(=O)c1ccc(CNC(C)=O)s1	log10 of solubility kinetic	1.70

Fill in the blank: the reported log10 of solubility kinetic of CC(NCC(O)c1ccc([N+](=O)[O-])cc1)C12CC3CC(CC(C3)C1)C2 (stereo not drawn) is ____.
1.58

Another compound to look at: Cc1nc(NC(=O)CN2CCOCC2)sc1C(=O)N(C)C
1.60

Another compound to look at: O=C(Nc1ccccc1)c1cccc(Cn2cc(C(F)(F)F)ccc2=O)c1
0.30

Another compound to look at: Cc1ccc2c(NC(=S)NC(=O)c3ccccc3)cccc2n1
1.05

Another compound to look at: O=c1c2[nH]c3cccc(Cl)c3c2ncn1CC1CCCO1 (stereo not drawn)
0.87

Another compound to look at: CCc1ccc(OCC(=O)N2CC(C(N)=O)Oc3ccccc32)cc1 (stereo not drawn)
1.65
